# key: entry, value: scatter score 0-4, MLP29, 3.000 nM
- system tested: native mouse MET on living cells (mouse, UniProt P16056 25-1379)
- test protocol: cell-based or functional assay
parameter measured: scatter score 0-4, MLP29, 3.000 nM (score)

INSERT INTO results (binder, reported_measurement) VALUES
  ('76G7 chimeric llama-human IgG1 mAb (antibody, V domains shown, llama VH on human IgG1 CH1-CH2-CH3, llama VL on human lambda CL) VH: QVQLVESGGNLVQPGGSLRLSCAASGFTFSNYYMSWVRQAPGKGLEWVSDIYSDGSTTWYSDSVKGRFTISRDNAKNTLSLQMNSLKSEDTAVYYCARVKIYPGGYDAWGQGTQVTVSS VL: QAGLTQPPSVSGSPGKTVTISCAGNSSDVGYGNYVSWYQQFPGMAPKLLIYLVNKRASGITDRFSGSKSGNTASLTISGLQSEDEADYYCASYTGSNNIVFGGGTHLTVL', 2),
  ('71G12 chimeric llama-human IgG1 mAb (antibody, V domains shown, llama VH on human IgG1 CH1-CH2-CH3, llama VL on human kappa CL) VH: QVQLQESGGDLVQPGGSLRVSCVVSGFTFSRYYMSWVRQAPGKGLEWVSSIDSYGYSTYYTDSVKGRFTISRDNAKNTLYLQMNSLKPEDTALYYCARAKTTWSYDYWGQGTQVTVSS VL: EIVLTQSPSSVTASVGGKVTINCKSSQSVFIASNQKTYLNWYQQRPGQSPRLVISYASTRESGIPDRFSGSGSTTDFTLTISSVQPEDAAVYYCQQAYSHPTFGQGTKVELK', 2),
  ('71D4 chimeric llama-human IgG1 mAb (antibody, V domains shown, llama VH on human IgG1 CH1-CH2-CH3, llama VL on human lambda CL) VH: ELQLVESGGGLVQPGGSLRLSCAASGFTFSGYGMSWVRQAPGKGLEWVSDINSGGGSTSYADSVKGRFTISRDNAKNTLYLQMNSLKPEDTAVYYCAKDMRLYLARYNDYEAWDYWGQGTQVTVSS VL: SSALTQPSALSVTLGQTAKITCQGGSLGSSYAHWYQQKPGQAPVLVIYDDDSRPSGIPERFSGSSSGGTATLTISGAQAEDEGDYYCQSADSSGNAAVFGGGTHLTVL', 2),
  ('71D6 chimeric llama-human IgG1 mAb (antibody, V domains shown, llama VH on human IgG1 CH1-CH2-CH3, llama VL on human lambda CL) VH: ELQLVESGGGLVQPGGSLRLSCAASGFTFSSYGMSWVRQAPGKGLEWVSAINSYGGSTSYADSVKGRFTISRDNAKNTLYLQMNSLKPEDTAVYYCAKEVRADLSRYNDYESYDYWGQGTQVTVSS VL: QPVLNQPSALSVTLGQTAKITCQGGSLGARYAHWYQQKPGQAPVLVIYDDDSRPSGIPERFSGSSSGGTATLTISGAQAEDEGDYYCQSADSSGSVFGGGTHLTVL', 4),
  ('72F8 chimeric llama-human IgG1 mAb (antibody, V domains shown, llama VH on human IgG1 CH1-CH2-CH3, llama VL on human lambda CL) VH: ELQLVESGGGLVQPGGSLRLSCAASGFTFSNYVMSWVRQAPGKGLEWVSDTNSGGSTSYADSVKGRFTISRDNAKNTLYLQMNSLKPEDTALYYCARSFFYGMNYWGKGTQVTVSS VL: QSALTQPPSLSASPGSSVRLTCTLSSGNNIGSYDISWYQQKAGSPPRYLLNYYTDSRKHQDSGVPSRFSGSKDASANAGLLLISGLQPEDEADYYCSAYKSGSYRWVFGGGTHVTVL', 2);
